- Species: Canis lupus familiaris
- test summary: Inhibition of dog-heart microsomal Na(+)/K(+) ATPase using ATP substrate
value kind: ID50 (µmol)
Give bare numbers, in µmol.

Below: 4 compounds and their reported ID50.
>  <compound>
C[C@]12CC[C@@](O)(CC3CO3)C[C@H]1CC[C@@H]1[C@@H]2CC[C@]2(C)[C@@H](C3=CC(=O)OC3)CC[C@]12O (stereo partly drawn)

>  <recorded measurement>
1.69

$$$$
>  <compound>
C=C[C@]1(O)CC[C@@]2(C)[C@H](CC[C@@H]3[C@@H]2CC[C@]2(C)[C@@H](C4=CC(=O)OC4)CC[C@]32O)C1

>  <recorded measurement>
0.092

$$$$
>  <compound>
C[C@]12CC[C@@](O)(CC(O)CO)C[C@H]1CC[C@@H]1[C@@H]2CC[C@]2(C)[C@@H](C3=CC(=O)OC3)CC[C@]12O (stereo partly drawn)

>  <recorded measurement>
4.44

$$$$
>  <compound>
C=CC[C@]1(O)CC[C@@]2(C)[C@H](CC[C@@H]3[C@@H]2CC[C@]2(C)[C@@H](C4=CC(=O)OC4)CC[C@]32O)C1

>  <recorded measurement>
0.55

$$$$

Provide ID50 values for the following items, in order.
1. C[C@]12CC[C@@]3(CO3)C[C@H]1CC[C@@H]1[C@@H]2CC[C@]2(C)[C@@H](C3=CC(=O)OC3)CC[C@]12O
2. CC[C@]1(O)CC[C@@]2(C)[C@H](CC[C@@H]3[C@@H]2CC[C@]2(C)[C@@H](C4=CC(=O)OC4)CC[C@]32O)C1
3. C[C@]12CC[C@@](O)(c3ccccc3)C[C@H]1CC[C@@H]1[C@@H]2CC[C@]2(C)[C@@H](C3=CC(=O)OC3)CC[C@]12O
4. C[C@]12CC[C@@](O)(C3CO3)C[C@H]1CC[C@@H]1[C@@H]2CC[C@]2(C)[C@@H](C3=CC(=O)OC3)CC[C@]12O (stereo partly drawn)

[0.275, 0.73, 0.6, 1.1]

* * *

- Species: Bos taurus
- test summary: Inhibition of beef-brain Na(+)/K(+) ATPase assessed as oxidation of NADH using ATP substrate preincubated for 5 mins
value kind: ID50 (µmol)
Answers are plain numbers, in µmol.

Below: 3 molecules and their reported ID50.
>  <smi>
C#C[C@]1(O)CC[C@@]2(C)[C@H](CC[C@@H]3[C@@H]2CC[C@]2(C)[C@@H](C4=CC(=O)OC4)CC[C@]32O)C1

>  <ID50 [µmol]>
0.25

$$$$
>  <smi>
C[C@]12CC[C@@H](O)C[C@H]1CC[C@@H]1[C@@H]2CC[C@]2(C)[C@@H](C3=CC(=O)OC3)CC[C@]12O

>  <ID50 [µmol]>
1.17

$$$$
>  <smi>
C=C[C@]1(O)CC[C@@]2(C)[C@H](CC[C@@H]3[C@@H]2CC[C@]2(C)[C@@H](C4=CC(=O)OC4)CC[C@]32O)C1

>  <ID50 [µmol]>
0.31

$$$$

Read the next record carefully.
Which measured ID50 value corresponds to C[C@]12CC[C@H](O)C[C@H]1CC[C@@H]1[C@@H]2CC[C@]2(C)[C@@H](C3=CC(=O)OC3)CC[C@]12O ?
0.096

* * *

- Organism: Bos taurus
- test summary: Inhibition of beef-brain Na(+)/K(+) ATPase assessed as oxidation of NADH using ATP substrate preincubated for 5 mins
Exercise: state measured ID50 for each of the molecules provided.
One number for each entry, in µmol.

>  <molecule>
CC[C@@]1(O)CC[C@@]2(C)[C@H](CC[C@@H]3[C@@H]2CC[C@]2(C)[C@@H](C4=CC(=O)OC4)CC[C@]32O)C1

>  <recorded measurement>
6.4

$$$$

Provide ID50 values for the following items, in order.
1. C[C@]12CC[C@](O)(C3CO3)C[C@H]1CC[C@@H]1[C@@H]2CC[C@]2(C)[C@@H](C3=CC(=O)OC3)CC[C@]12O (stereo partly specified)
2. C[C@]12CC[C@@](O)(CC(O)CO)C[C@H]1CC[C@@H]1[C@@H]2CC[C@]2(C)[C@@H](C3=CC(=O)OC3)CC[C@]12O (stereo partly specified)

1: 3.17; 2: 7.66

Provide ID50 values for the following items, in order.
1. C[C@]12CC[C@@](O)(C(O)CO)C[C@H]1CC[C@@H]1[C@@H]2CC[C@]2(C)[C@@H](C3=CC(=O)OC3)CC[C@]12O (stereo partly specified)
2. C[C@]12CC[C@@](O)(CC3CO3)C[C@H]1CC[C@@H]1[C@@H]2CC[C@]2(C)[C@@H](C3=CC(=O)OC3)CC[C@]12O (stereo partly specified)
3. C[C@@]1(O)CC[C@@]2(C)[C@H](CC[C@@H]3[C@@H]2CC[C@]2(C)[C@@H](C4=CC(=O)OC4)CC[C@]32O)C1

[15.4, 3.65, 11.4]
